- Study System: Mannose-6-phosphate isomerase (Homo sapiens)
- Experiment Notes: MPI inhibition at elevated mannose 6-phosphate – biochemical, fluorescence intensity, high mannose 6-phosphate, primary screen (AID 1220)
- Protocol Conditions: recombinant PMI enzyme, coupled fluorescence intensity; at 20 µM; active compounds read high
Hit rate of the full screen: of about 190,000 compounds, about 1,300 (0.68%) were called active. This excerpt belongs to a sample that is enriched for actives.
Each item that follows carries a reported inhibition.
Entry rule: numbers only, all in %.

Query inhibition for CC(/C=N/NC(=O)c1cc(-c2ccncc2)nc2ccccc12)=C\c1ccco1
11.8

Query inhibition for CN(C)C=C1C(=O)c2ccccc2C1=O
0.8
